// reported glomerular separation for each item listed
system: Danio rerio Tg(wt1b:EGFP) embryo, pronephros; assay: glomerular separation, fold change vs DMSO control; higher = glomeruli further apart (abnormal); settings: 25 µM; exposure: 24-48 hpf
Structures can show the parent of a compound that is named as a salt.
No unit in the answer, please; the number alone is enough.

Observe how each entry below is paired with its result.
>>> numeric_result("Cc1ncc(CO)c(CO)c1O [Pyridoxine hydrochloride]")
0.838
>>> numeric_result("CCCC(C(=O)OCCN(CC)CC)(c1ccccc1)c1ccccc1 [Proadifen hydrochloride]")
0.771
>>> numeric_result("C[C@H]1O[C@@H](O[C@H]2[C@@H](O)C[C@H](O[C@H]3[C@@H](O)C[C@H](O[C@H]4CC[C@@]5(C)[C@H](CC[C@@H]6[C@@H]5C[C@@H](O)[C@]5(C)[C@@H](C7=CC(=O)OC7)CC[C@]65O)C4)O[C@@H]3C)O[C@@H]2C)C[C@H](O)[C@@H]1O [Digoxin]")
1.43
>>> numeric_result("COc1ccccc1OCC(O)COC(N)=O (stereo not given) [Methocarbamol]")
1.02
>>> numeric_result("C[C@@H]1[C@H](O)[C@@H](C)/C=C/C=C/C=C/C=C/C=C/C=C/C=C/[C@H](O[C@@H]2O[C@H](C)[C@@H](O)[C@H](N)[C@@H]2O)C[C@@H]2O[C@](O)(C[C@@H](O)C[C@@H](O)[C@H](O)CC[C@@H](O)C[C@@H](O)CC(=O)O[C@H]1C)C[C@H](O)[C@H]2C(=O)O [Amphotericin B]")
3.69

Just so you know, measured glomerular separation for CCN(CC)CCc1nc(-c2ccccc2)no1 [Oxalamine citrate salt] came out at 0.929

Nc1nc(/C(=C/CC(=O)O)C(=O)N[C@@H]2C(=O)N3C(C(=O)O)=CCS[C@H]23)cs1 [Ceftibuten] yielded glomerular separation of 0.515

Value of glomerular separation reported for the molecule CC1(C)[C@@H](OC(=O)CCC(=O)O)CC[C@]2(C)[C@H]3C(=O)C=C4[C@@H]5C[C@@](C)(C(=O)O)CC[C@]5(C)CC[C@@]4(C)[C@]3(C)CC[C@@H]12 [Carbenoxolone disodium salt] is 0.718

For CC1CC(OC(=O)c2ccccc2O)CC(C)(C)C1 (stereo not given) [Homosalate] the molecule record lists glomerular separation as 0.865

Given item CC[N+](CC)(CC(=O)Nc1c(C)cccc1C)Cc1ccccc1 [Denatonium benzoate] , the value recorded as its glomerular separation is 0.973

// glomerular separation value for Cc1c(NC(C)C)c(=O)n(-c2ccccc2)n1C [Isopyrin hydrochloride] : 1.1

Please fill in: glomerular separation reported for OC(CCN1CCCCC1)(c1ccccc1)c1ccccc1 [Pridinol methanesulfonate salt] = 0.797

Entry CCCCOc1ccc(C(=O)CCN2CCCCC2)cc1 [Dyclonine hydrochloride] , glomerular separation reported as 0.982

GET /value?item= COc1ccc(C(=O)c2ccccc2O)c(O)c1 [Dioxybenzone] &field=glomerular separation returns 2.57

Form: molecule = Nc1c2c(nc3ccccc13)CCCC2 [Tacrine hydrochloride] ; glomerular separation = 1.09

* * *

test system: Danio rerio Tg(wt1b:EGFP) embryo, pronephros; assay: glomerular width (mean of left and right), fold change vs DMSO control; higher = wider glomerulus; settings: 25 µM; exposure: 24-48 hpf
Counter-ions that a name gives are not always drawn.
reported metric: glomerular width
API doc: respond with a numeric literal and nothing else, no unit.

Before answering, review these 3 worked examples.
>>> numeric_result("OC(CCN1CCCCC1)(c1ccccc1)c1ccccc1 [Pridinol methanesulfonate salt]")
1.02
>>> numeric_result("CN1CCOC(c2ccccc2)c2ccccc2C1 (centres undefined) [Nefopam hydrochloride]")
0.982
>>> numeric_result("CN1[C@@H]2CC[C@H]1C[C@@H](OC(c1ccccc1)c1ccccc1)C2 [Benztropine mesylate]")
1

Consider the record given below.
Danio rerio Tg(wt1b:EGFP) embryo, pronephros assay, compound CC(=O)N(O)CCCCCNC(=O)CCC(=O)N(O)CCCCCNC(=O)CCC(=O)N(O)CCCCCN [Deferoxamine mesylate] , recorded glomerular width = 1.02
